Value source: patent US20190177419A1

# Measured on: T1, recombinant human Axl-Fc chimera (R&D Systems, Cat. no. 154-AL) (human, UniProt P30530 26-451)
# T1 construct: extracellular domain; Bought reagent; also called rhAxl-Fc; rhAxl; not shown: Fc part (and any linker or tag) of the bought chimera; not described
# Assay explanation: SPR, Biacore 3000, 25 C, rhAxl-Fc immobilised on CM5 (190 RU); half-life of the complex as ln2/koff

Binder	Half-life (t1/2) / min
mouse monoclonal antibody 10C9 (from hybridoma UT-10C9-B9) (antibody, IgG2b, V domains shown, Whole mouse antibody purified from hybridoma supernatant; Possible N-glycosylation site (NFT) in CDR-H1; also called MAb 10C9) VH: QVQLQQPGPELVKPGASVKISCKTSDYNFTRYYIHWVKQRPGQGLEWIGWIYPGTGDSKYNEKFKGRATLTADTSSSTAYMQLSSQTSEDSAVYFCARNGNYWYFDVWGAGTAVTVSS VL: DIVMTQAAPSGPVTPGESVSISCRSSKSLLHSNGNTYLYWFLQRPGQSPQLLIYRMSNLASGVPDRFSGSGSGTAFTLRISRVEAEDVGIYYCMQHREYPFTFGGGTKLEIK	40
mouse monoclonal antibody 10G5 (from hybridoma WR-10G5-E5) (antibody, IgG1, V domains shown, Whole mouse antibody purified from hybridoma supernatant; also called MAb 10G5) VH: QVQLQQSGAELVRPGASVKLSCKASGYSFTDFYINWVRQRPGQGLEWIARIFPGGDNTYYNEKFKGKATLTAEESSSTAYIQLSSLTSEDSAVYFCARRGLYYAMDYWGQGISVTVSS VL: DVLMTQTPLSLPVSLGDQASISCRSSQSLVHSNGIPYLHWYLQKPGQSPKLLIYRVSNRFSGVPDRFSGSGSGTDFTLKISRVEAEDLGVYFCSQGTHVPPTFGGGTKLEIK	26.3
chimeric (mouse variable/human constant) IgG1 antibody c10G5 (antibody, V domains shown, 10G5 VH and VL joined in frame to human IgG1 and C-kappa constant domains, made in CHO cells; also called chimeric 10G5; not shown: constant domains of the human IgG1 heavy chain; constant domain of the human light (C-kappa) chain) VH: QVQLQQSGAELVRPGASVKLSCKASGYSFTDFYINWVRQRPGQGLEWIARIFPGGDNTYYNEKFKGKATLTAEESSSTAYIQLSSLTSEDSAVYFCARRGLYYAMDYWGQGISVTVSS VL: DVLMTQTPLSLPVSLGDQASISCRSSQSLVHSNGIPYLHWYLQKPGQSPKLLIYRVSNRFSGVPDRFSGSGSGTDFTLKISRVEAEDLGVYFCSQGTHVPPTFGGGTKLEIK	68.4
chimeric (mouse variable/human constant) IgG1 antibody c10C9 (antibody, V domains shown, 10C9 VH and VL joined in frame to human IgG1 and C-kappa constant domains, made in CHO cells; also called chimeric 10C9; not shown: constant domains of the human IgG1 heavy chain; constant domain of the human light (C-kappa) chain) VH: QVQLQQPGPELVKPGASVKISCKTSDYNFTRYYIHWVKQRPGQGLEWIGWIYPGTGDSKYNEKFKGRATLTADTSSSTAYMQLSSQTSEDSAVYFCARNGNYWYFDVWGAGTAVTVSS VL: DIVMTQAAPSGPVTPGESVSISCRSSKSLLHSNGNTYLYWFLQRPGQSPQLLIYRMSNLASGVPDRFSGSGSGTAFTLRISRVEAEDVGIYYCMQHREYPFTFGGGTKLEIK	52.8
